Molecular target: PAR4 (Homo sapiens (Human))
Test: FLIPR assay in PAR4-expressing HEK293 cells (calcium mobilization)
Assay type: cell-based
Conditions: PAR4 antagonist activity, FLIPR assay as described in Example A
Quantity: IC50 (nM)

Example cases with answers are listed next.
COc1cc(OCc2cccc(-c3ccc(C(C)O)cn3)c2)c2cc(-c3cn4nc(OC)sc4n3)oc2c1 (stereo not shown) yielded IC50 of 1.11

COc1cc(OCc2cccc(-c3ccc(F)nc3)c2)c2cc(-c3cn4nc(C(C)(F)F)sc4n3)oc2c1 yielded IC50 of 3.37

COc1cc(OCc2cccc(-c3ccc(OC4CCCCO4)cn3)c2)c2cc(-c3cn4nc(OC)sc4n3)oc2c1 (stereo not shown) yielded IC50 of 0.79

COc1cc(OCc2cccc(-c3nc(CO)c(C)s3)c2)c2cc(-c3cn4nc(OC)sc4n3)oc2c1 yielded IC50 of 1.59

COc1cc(OCc2cccc(-c3ncccc3F)c2)c2cc(-c3cn4nc(OC)sc4n3)oc2c1 yielded IC50 of 1.21

P = COc1cc(OCc2cccc(-c3cnc(F)c(C)c3)c2)c2cc(-c3cn4nc(OC)sc4n3)oc2c1
Q = COc1cc(OCc2cncc(-c3ccc(Cl)nc3)c2)c2cc(-c3cn4nc(OC)sc4n3)oc2c1
Ask: Of the two listed items, which has the higher IC50? First: P Second: Q Could you answer with the label of the item you picked?
Result: Q
(Q: 1.57 nM, P: 0.68 nM)

====

Biological target: PAR4 (Homo sapiens (Human), UniProt Q96RI0)
Sequence (Q96RI0 18-385): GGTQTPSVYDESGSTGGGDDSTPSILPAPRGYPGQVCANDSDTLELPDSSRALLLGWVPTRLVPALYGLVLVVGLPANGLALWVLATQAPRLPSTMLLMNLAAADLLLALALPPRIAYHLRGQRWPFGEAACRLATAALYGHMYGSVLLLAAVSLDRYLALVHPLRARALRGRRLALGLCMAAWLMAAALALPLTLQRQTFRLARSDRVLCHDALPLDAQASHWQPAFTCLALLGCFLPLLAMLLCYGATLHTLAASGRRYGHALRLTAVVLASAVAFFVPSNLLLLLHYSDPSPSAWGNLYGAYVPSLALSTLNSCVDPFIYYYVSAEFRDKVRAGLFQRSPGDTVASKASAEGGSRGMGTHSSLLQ
Assay: FLIPR assay in PAR4-expressing HEK293 cells (calcium mobilization)
Type: cell-based
Conditions: PAR4 antagonist activity, FLIPR assay as described in Example A
Quantity: IC50 (nM)

Example cases with answers are listed next.
COc1cc(OCc2cccc(-c3ccnc(C)c3)c2)c2cc(-c3cn4nc(OC)sc4n3)oc2c1 yielded IC50 of 4.29

COc1cc(OCc2cncc(-c3cnc(OC)nc3)c2)c2cc(-c3cn4nc(OC)sc4n3)oc2c1 yielded IC50 of 2.14

COc1cc(OCc2cccc(C3=CCOCC3)c2)c2cc(-c3cn4nc(OC)sc4n3)oc2c1 yielded IC50 of 0.71

COc1nn2cc(-c3nc4c(OCc5cccc(-c6ccoc6)c5)cccc4o3)nc2s1 yielded IC50 of 22.1

COc1cc(OCc2cc(F)cc(-c3ncc(F)cc3F)c2)c2cc(-c3cn4nc(OC)sc4n3)oc2c1 yielded IC50 of 1.48

A = COc1cc(OCc2cccc(-c3cc4ccccc4s3)c2)c2cc(-c3cn4nc(OC)sc4n3)oc2c1
B = COc1cc(OCc2cccc(C3CCCCC3)c2)c2cc(-c3cn4nc(OC)sc4n3)oc2c1
C = COc1cc(OCc2cccc(-c3ccc(C(=O)O)nc3)c2)c2cc(-c3cn4nc(OC)sc4n3)oc2c1
D = COc1cc(OCc2cccc(-c3csc4ccccc34)c2)c2cc(-c3cn4nc(OC)sc4n3)oc2c1
Ask: Put these in order: smallest IC50 first, largest last. Form field (ranking): labels in requested order.
Result: B, D, A, C

a = COc1ccc(-c2cncc(COc3cc(OC)cc4oc(-c5cn6nc(OC)sc6n5)cc34)c2)cc1
b = CCCOc1ncc(-c2cccc(COc3cc(OC)cc4oc(-c5cn6nc(OC)sc6n5)cc34)c2)cn1
c = COc1cc(OCc2cccc(-c3ccc(F)c(C)n3)c2)c2cc(-c3cn4nc(OC)sc4n3)oc2c1
d = COc1ncc(-c2cccc(COc3cc(Cl)cc4oc(-c5cn6nc(OC)sc6n5)cc34)c2)cn1
Ask: Put these in order: smallest IC50 first, largest last. Form field (ranking): labels in requested order.
Result: b, c, d, a

====

Biological target: PAR4 (Homo sapiens (Human), UniProt Q96RI0)
Test: Gamma thrombin induced platelet aggregation assay (PRP assay)
Assay type: cell-based
Settings: γ-thrombin induced platelet aggregation in PRP
pIC50: −log10 of the molar value.
Quantity: pIC50

Example cases with answers are listed next.
pIC50 value, target or system PAR4 (Homo sapiens (Human), UniProt Q96RI0), for COc1cc(OCc2cccc(-c3ccc(C#N)nc3)c2)c2cc(-c3cn4nc(OC)sc4n3)oc2c1 : 8.31

pIC50 value, target or system PAR4 (Homo sapiens (Human), UniProt Q96RI0), for COc1cc(OCc2cccc(-c3ccc(N4CCOCC4)nc3)c2)c2cc(-c3cn4nc(OC)sc4n3)oc2c1 : 5.57

pIC50 value, target or system PAR4 (Homo sapiens (Human), UniProt Q96RI0), for COc1cc(OCc2cccc(-c3ccc(F)nc3)c2)c2cc(-c3cn4nc(C(C)(F)F)sc4n3)oc2c1 : 5.65

I = COc1cc(OCc2cccc(C3(O)CCOCC3)n2)c2cc(-c3cn4nc([C@H](C)F)sc4n3)oc2c1
II = COc1cc(COc2cc(OC)cc3oc(-c4cn5nc(OC)sc5n4)cc23)cc(-c2cnc(OC)nc2)c1
III = COc1nn2cc(-c3nc4c(OCc5cccc(-c6ccoc6)c5)cccc4o3)nc2s1
Ask: Sequence the entries by pIC50, beginning with the highest number. Form field (ranking): labels in requested order.
Result: II, I, III
(II: 8.44, I: 7.06, III: 5.30)

====

Molecular target: PAR1 (Homo sapiens (Human), UniProt P25116)
Sequence (P25116 22-425): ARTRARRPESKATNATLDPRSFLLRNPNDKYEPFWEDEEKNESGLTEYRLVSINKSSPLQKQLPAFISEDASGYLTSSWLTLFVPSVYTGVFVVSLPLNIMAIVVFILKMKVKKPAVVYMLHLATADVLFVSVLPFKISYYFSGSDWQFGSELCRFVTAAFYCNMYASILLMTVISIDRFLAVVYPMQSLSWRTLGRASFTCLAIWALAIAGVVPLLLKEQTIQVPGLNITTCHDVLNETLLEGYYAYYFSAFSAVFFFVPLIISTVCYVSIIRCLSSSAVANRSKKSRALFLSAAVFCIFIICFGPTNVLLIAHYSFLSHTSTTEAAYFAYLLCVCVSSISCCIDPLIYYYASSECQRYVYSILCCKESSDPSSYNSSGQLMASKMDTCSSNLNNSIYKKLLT
Assay: FLIPR PAR1 counter screen (SFFLRR-induced calcium mobilization) in HEK293 cells
Format: cell-based
Details: Example A, routinely tested; read-out: EC50 of agonist peptide in the assay (PAR1 counter screen)
Where no end group is shown, it is not given here.
Quantity: pEC50
pEC50 (log units): -log10 of the concentration in mol/L.

SFFLRR [SFFLRR] yielded pEC50 of 6.22

====

Target: PAR4 (Homo sapiens (Human), UniProt Q96RI0)
Assay: FLIPR assay in PAR4-expressing HEK293 cells (calcium mobilization)
Type: cell-based
Conditions: PAR4 antagonist activity, FLIPR assay as described in Example A
pIC50: −log10 of the molar value.
Quantity: pIC50

pIC50 value, target or system PAR4 (Homo sapiens (Human), UniProt Q96RI0), for COc1cc(OCc2cccc(-c3cnc(OC)nc3)n2)c2cc(-c3cn4nc(OC)sc4n3)oc2c1 [Example 77] : 8.66

pIC50 value, target or system PAR4 (Homo sapiens (Human), UniProt Q96RI0), for COc1cc(OCc2cccc(-c3c(C)noc3C)c2)c2cc(-c3cn4nc(OC)sc4n3)oc2c1 [Example 5] : 8.63

pIC50 value, target or system PAR4 (Homo sapiens (Human), UniProt Q96RI0), for COc1cc(OCc2cccc(-c3ccc(C#N)nc3)c2)c2cc(-c3cn4nc(OC)sc4n3)oc2c1 [Example 13] : 8.76

====

Molecular target: UniProt Q96RI0
Assay: Gamma thrombin induced platelet aggregation assay (PRP assay)
Type: cell-based
Conditions: γ-thrombin induced platelet aggregation in PRP
Quantity: IC50 (µM)

Example cases with answers are listed next.
COc1cc(OCc2cccc(-c3ccc([N+](=O)[O-])nc3)c2)c2cc(-c3cn4nc(OC)sc4n3)oc2c1 [Example 28] yielded IC50 of 0.0246

COc1cc(OCc2cccc(C3=CCOCC3)c2)c2cc(-c3cn4nc(OC)sc4n3)oc2c1 [Example 93] yielded IC50 of 0.105

COc1cc(OCc2cccc(-c3ccc(C(=O)OC(C)(C)C)nc3)c2)c2cc(-c3cn4nc(OC)sc4n3)oc2c1 [Example 60] yielded IC50 of 0.0813

COc1cc(OCc2cccc(-c3ccc(F)cn3)c2)c2cc(-c3cn4nc([C@H](C)F)sc4n3)oc2c1 [Example 69] yielded IC50 of 0.0131

1 = COc1cc(OCc2cccc(-c3cccnc3C#N)c2)c2cc(-c3cn4nc(OC)sc4n3)oc2c1 [Example 26]
2 = COc1cc(OCc2cccc(-c3ccc(C#N)c(F)c3)c2)c2cc(-c3cn4nc(OC)sc4n3)oc2c1 [Example 30]
Ask: Min IC50? 1 | 2 Could you answer with the label of the item you picked?
Result: 2
(2: 0.125 µM, 1: 0.97 µM)

====

Target: PAR4 (Homo sapiens (Human))
Test: Gamma thrombin induced platelet aggregation assay (PRP assay)
Type: cell-based
Conditions: γ-thrombin induced platelet aggregation in PRP
pIC50: −log10 of the molar value.
Quantity: pIC50

Example cases with answers are listed next.
COc1cc(OCc2ccnc(-c3ccc(C(=O)N(C)C)cc3)n2)c2cc(-c3cn4nc(OC)sc4n3)oc2c1 yielded pIC50 of 8.78

COc1cc(OCc2cccc(-c3ccc(F)c(C)n3)c2)c2cc(-c3cn4nc(OC)sc4n3)oc2c1 yielded pIC50 of 5.56

COc1cc(OCc2cccc(-c3cnsc3)c2)c2cc(-c3cn4nc(OC)sc4n3)oc2c1 yielded pIC50 of 7.18

COc1cc(OCc2cccc(-c3ccc4c(c3)OCO4)c2)c2cc(-c3cn4nc(OC)sc4n3)oc2c1 yielded pIC50 of 7.17

COc1ccc(-c2nccc(COc3cc(OC)cc4oc(-c5cn6nc(OC)sc6n5)cc34)n2)cc1 yielded pIC50 of 8.74

COc1cc(OCc2cccc(-c3ccc4nccn4c3)c2)c2cc(-c3cn4nc(OC)sc4n3)oc2c1 yielded pIC50 of 6.20

A = COc1cc(OCc2cccc(-c3cncnc3)c2)c2cc(-c3cn4nc([C@H](C)F)sc4n3)oc2c1
B = COc1cc(OCc2ccnc(-c3ccnc(F)c3)n2)c2cc(-c3cn4nc(OC)sc4n3)oc2c1
Ask: Min pIC50? A | B Could you answer with the label of the item you picked?
Result: A

a = COc1cc(OCc2cccc(-c3ccc4c(c3)OCCO4)c2)c2cc(-c3cn4nc(OC)sc4n3)oc2c1
b = COc1cc(OCc2cccc(-c3cncnc3)c2)c2cc(-c3cn4nc(C(C)(F)F)sc4n3)oc2c1
Ask: Min pIC50? a | b Could you answer with the label of the item you picked?
Result: b
(b: 5.62, a: 7.30)
